- Test system: Mycobacteroides abscessus
- protocol: Antimycobacterial activity against Mycobacterium abscessus CIP104536T with smooth morphotype assessed as inhibition of mycobacterial growth incubated for 3 to 5 days by resazurin microtiter assay
- Format: functional
- condition summary: time 3-5 day
Recorded MIC90 by entry
Express your answer in µg/mL, writing the number without its unit.

Below, 3 compounds whose answers are already recorded.
> print(dat)
                          smiles.repr  result.value
1      O=C(/C=C/c1ccc(C(F)(F)F)cc1)NO          39.6
2  CCCCCC(=O)ONC(=O)/C=C/c1ccc(OC)cc1          76.5
3      O=C(/C=C/c1cccc(C(F)(F)F)c1)NO          74.8

// query Query for Mycobacteroides abscessus: what MIC90 does the record show for CCCCOc1ccc(/C=C/C=C/C(=O)NO)cc1 ?
// result 59.3

###

Entries and their measured CC50 at 24 h follow.
- protocol: Cytotoxicity against C57BL/6 mouse BMDM cells assessed as reduction in cell viability measured after 24 hrs by resazurin dye based assay
- Format: toxicity
- condition summary: C57BL/6, mouse, BMDM cells (bone marrow-derived macrophages)

// query Name the reported CC50 at 24 h value associated with the compound CCCCCCCOc1ccc(/C=C/C=C/C(=O)NO)cc1
// result 67 µg/mL

// query Given the compound COc1ccc(/C=C/C(=O)NO)cc1 , what is its reported CC50 at 24 h?
// result < 10 µg/mL

// query Report CC50 at 24 h for O=C(/C=C/C=C/c1cccc(F)c1)NO please.
// result < 10 µg/mL

###

# CC50 at 24 h values compiled below
- protocol: Cytotoxicity against C57BL/6 mouse BMDM cells assessed as reduction in cell viability measured after 24 hrs by resazurin dye based assay
- Assay type: toxicity
- condition summary: C57BL/6, mouse, BMDM cells (bone marrow-derived macrophages)

Below are worked cases with known answers.
> print(dat)
                             smiles.repr  observation.type  result.value
1                O=C(/C=C/c1ccc(F)cc1)NO      CC50 at 24 h    < 10 µg/mL
2    CCCC(=O)ONC(=O)/C=C/C=C/c1ccc(F)cc1      CC50 at 24 h   > 125 µg/mL
3  CCCCCCCCCCOc1ccc(/C=C/C=C/C(=O)NO)cc1      CC50 at 24 h   > 125 µg/mL
4         NNC(=O)/C=C/c1ccc(C(F)(F)F)cc1      CC50 at 24 h   > 125 µg/mL

// query Returns the measured CC50 at 24 h for the input molecule. Input: O=C(/C=C/c1cccc(F)c1)NO
// result < 10 µg/mL

// query // lookup CC50 at 24 h for CCCCCCCCCC(=O)ONC(=O)/C=C/C=C/c1ccc(F)cc1
// result > 125 µg/mL

###

- Test system: Mycobacteroides abscessus
- protocol: Antimycobacterial activity against Mycobacterium abscessus CIP104536T with rough morphotype assessed as inhibition of mycobacterial growth incubated for 3 to 5 days by resazurin microtiter assay
- Type: functional
- condition summary: time 3-5 day
observation type: MIC50

Sample records with MIC50:
> print(dat)
                           smiles.repr              tested.target  result.value
1                    O=C(CCc1ccccc1)NO  Mycobacteroides abscessus   > 100 µg/mL
2              O=C(/C=C/c1ccc(F)cc1)NO  Mycobacteroides abscessus   > 100 µg/mL
3          NNC(=O)/C=C/C=C/c1cccc(F)c1  Mycobacteroides abscessus   > 100 µg/mL
4  O=C(/C=C/C=C/c1ccc(-c2ccccc2)cc1)NO  Mycobacteroides abscessus     6.9 µg/mL
5             COc1ccc(/C=C/C(=O)NO)cc1  Mycobacteroides abscessus   > 100 µg/mL

Lab note: next molecule to report on.
// query Sample O=C(/C=C/c1ccc(-c2ccccc2)cc1)NO — what was its MIC50?
// result > 100 µg/mL

###

Each item that follows carries a reported MIC50.
- Test system: Mycobacteroides abscessus
- protocol: Antimycobacterial activity against Mycobacterium abscessus CIP104536T with smooth morphotype assessed as inhibition of mycobacterial growth incubated for 3 to 5 days by resazurin microtiter assay
- Type: functional
- condition summary: time 3-5 day

// query Name the reported MIC50 value associated with the compound O=C(/C=C/C=C/c1ccc(-c2ccccc2)cc1)NO
// result 31.8 µg/mL

// query Need MIC50, item CCCCCCCCCC(=O)ONC(=O)/C=C/C=C/c1ccc(F)cc1
// result > 100 µg/mL

###

Form field: MIC50 (one value per entry).
- Test system: Mycobacterium marinum
- protocol: Antimycobacterial activity against Mycobacterium marinum ATCC BAA-535/M assessed as inhibition of mycobacterial growth incubated for 10 to 14 days by resazurin microtiter assay
- Format: functional
- condition summary: time 10-14 day
Kindly answer with a numeric value in µg/mL, unit omitted.

// query // MIC50 lookup, key: COc1ccc(/C=C/C=C/C(=O)NO)cc1
// result 14.8

// query If you can, please state the reported MIC50 value of O=C(/C=C/c1ccc(C(F)(F)F)cc1)NO .
// result 14.1

// query For the molecule shown here, O=C(CCc1ccccc1)NO , give the reported MIC50.
// result 11.9

// query Which MIC50 is reported for this molecule? NNC(=O)/C=C/c1cccc(F)c1
// result 41.1

// query Recorded MIC50 of CCCCCC(=O)ONC(=O)/C=C/c1ccc(OC)cc1 , please.
// result 21.2

###

- Test system: Mycobacterium marinum
- protocol: Antimycobacterial activity against Mycobacterium marinum ATCC BAA-535/M assessed as inhibition of mycobacterial growth incubated for 10 to 14 days by resazurin microtiter assay
- Format: functional
- condition summary: time 10-14 day
Listed here are compounds together with their documented MIC50.
Report the figure in µg/mL without appending any unit label.

> print(dat)
                                smiles.repr  result.value
1               O=C(/C=C/C=C/c1cccc(F)c1)NO           7.5
2  CCCCCCCCCC(=O)ONC(=O)/C=C/C=C/c1ccc(F)cc1          13.2
3       CCCC(=O)ONC(=O)/C=C/C=C/c1ccc(F)cc1           7.9
4                  O=C(/C=C/C=C/c1ccncc1)NO          26.9

Please look at the following compound next.
// query // MIC50 lookup, key: O=C(/C=C/c1ccncc1)NO
// result 75

###

- Tested on: Mycobacteroides abscessus
- protocol: Antimycobacterial activity against Mycobacterium abscessus CIP104536T with rough morphotype assessed as inhibition of mycobacterial growth incubated for 3 to 5 days by resazurin microtiter assay
- Assay type: functional
- condition summary: time 3-5 day
observation type: MIC50 (µg/mL)
Reply numerically in µg/mL, unit not repeated.

> print(dat)
                   smiles.repr              tested.target  result.value
1  O=C(/C=C/C=C/c1cccc(F)c1)NO  Mycobacteroides abscessus             6

// query What value of MIC50 has been reported for the following compound? O=C(/C=C/c1cccc(F)c1)NO
// result 7.6

###

This section presents compounds with their documented CC50 at 24 h values.
- protocol: Cytotoxicity against C57BL/6 mouse BMDM cells assessed as reduction in cell viability measured after 24 hrs by resazurin dye based assay
- Format: toxicity
- condition summary: C57BL/6, mouse, BMDM cells (bone marrow-derived macrophages)

// query Give its CC50 at 24 h value. Item: O=C(/C=C/c1ccc(C(F)(F)F)cc1)NO
// result < 10 µg/mL

###

- protocol: Cytotoxicity against C57BL/6 mouse BMDM cells assessed as reduction in cell viability measured after 24 hrs by resazurin dye based assay
- Format: toxicity
- condition summary: C57BL/6, mouse, BMDM cells (bone marrow-derived macrophages)
Each entry below lists one item and its recorded CC50 at 24 h value.

> print(dat)
                          smiles.repr  result.value
1  CCCCCCCOc1ccc(/C=C/C=C/C(=O)NN)cc1      64 µg/mL

// query What measured CC50 at 24 h goes with COc1ccc(/C=C/C=C/C(=O)NO)cc1 ?
// result < 10 µg/mL

// query Name the recorded CC50 at 24 h for CCCCCCCCc1ccc(/C=C/C=C/C(=O)NO)cc1 .
// result < 10 µg/mL

// query Form field: reported CC50 at 24 h of NNC(=O)/C=C/c1cccc(F)c1
// result > 125 µg/mL

###

- System: Mycobacteroides abscessus
- protocol: Antimycobacterial activity against Mycobacterium abscessus CIP104536T with smooth morphotype assessed as inhibition of mycobacterial growth incubated for 3 to 5 days by resazurin microtiter assay
- Format: functional
- condition summary: time 3-5 day
Items are presented alongside their recorded MIC50.

> print(dat)
                       smiles.repr  result.value
1      NNC(=O)/C=C/c1ccc2c(c1)OCO2   > 100 µg/mL
2      NNC(=O)/C=C/C=C/c1cccc(F)c1   > 100 µg/mL
3  CCCCOc1ccc(/C=C/C=C/C(=O)NO)cc1    27.2 µg/mL

// query What measured MIC50 goes with CCCCCCCOc1ccc(/C=C/C=C/C(=O)NO)cc1 ?
// result > 100 µg/mL

// query // returns reported MIC50 for input CCCCCC(=O)ONC(=O)/C=C/C=C/c1ccc(OC)cc1
// result > 100 µg/mL

// query I would be grateful if you could share the reported MIC50 for O=C(/C=C/C=C/c1ccc(F)cc1)NO .
// result > 100 µg/mL

// query Query: MIC50; subject: NNC(=O)/C=C/c1cccc(C(F)(F)F)c1
// result > 100 µg/mL

// query State the recorded MIC50 for this entry: O=C(CCc1ccccc1)NO
// result > 100 µg/mL

// query # get_value(readout='MIC50', item= NNC(=O)/C=C/c1cccc(F)c1 )
// result > 100 µg/mL

// query Entry under review: CCCCCCONC(=O)/C=C/C=C/c1ccc(F)cc1 . Reported MIC50?
// result > 100 µg/mL

// query What value of measured MIC50 is listed for O=C(/C=C/c1ccc(C(F)(F)F)cc1)NO ?
// result 37.2 µg/mL

// query Return reported MIC50; argument: NNC(=O)/C=C/c1ccc(F)cc1
// result > 100 µg/mL

// query Bench note: what MIC50 did COc1ccc(/C=C/C=C/C(=O)NO)cc1 show?
// result > 100 µg/mL

// query Please look up its MIC50: CCCCCC(=O)ONC(=O)/C=C/C=C/c1ccc(F)cc1
// result > 100 µg/mL

// query Any idea what MIC50 was measured for CCCCCCCCCCOc1ccc(/C=C/C=C/C(=O)NO)cc1 ?
// result > 100 µg/mL

// query Tell me the measured MIC50 of COc1ccc(/C=C/C=C/C(=O)NN)cc1 , please.
// result > 100 µg/mL

// query MIC50 value for entry CCCCCCCOc1ccc(/C=C/C=C/C(=O)NN)cc1
// result 26.6 µg/mL

// query Any idea what its MIC50 is? The molecule is CCCCOc1ccc(/C=C/C=C/C(=O)NN)cc1
// result > 100 µg/mL

// query Endpoint output: MIC50 of COc1ccc(/C=C/C(=O)NO)cc1 . Value?
// result > 100 µg/mL

// query Fill blank: measured MIC50 of the molecule O=C(/C=C/C=C/c1ccc(C(F)(F)F)cc1)NO is ____.
// result > 100 µg/mL

// query Endpoint output: MIC50 of CCCC(=O)ONC(=O)/C=C/C=C/c1ccc(F)cc1 . Value?
// result > 100 µg/mL
